Origin of measurements: PubChem BioAssay (NCI)

Test system: OVCAR-3 ovarian
Assay: NCI tumour cell line growth inhibition, 48 h
MEASURE: TGI

molecule=O=C(c1ccccc1)c1ccc(-c2ccc(O)cc2)cc1 experimental_result="31.6 µM"

// query What measured TGI goes with "CN(CCNC(=O)c1[nH]nc2c1ccc1ccccc12)CCNC(=O)c1[nH]nc2c1ccc1ccccc12" ?
// result 6.26 µM

// query Field request: TGI | item: Cc1c(Cl)ccc2c1NC(=O)C2(O)CC(=O)c1ccc(Cl)cc1Cl (stereo unspecified)
// result > 50 µM

// query GET /values?readout=TGI&item= "C=C1C(=O)O[C@@H]2C[C@]3(C)[C@@H](C[C@H]12)[C@](C)(O)CC[C@@H]3O"
// result > 100 µM

// query Quick one: TGI of "Oc1ccc(-c2cc(-c3c(O)cc(O)cc3O)on2)cc1" ?
// result > 100 µM

// query What does the data say about its TGI? Entry: "COc1cc(OC)c(-c2cc(=O)c3c(OC)c(OC)c(OC)c(OC)c3o2)cc1OC"
// result > 100 µM
